Molecular target: Epidermal growth factor receptor (Homo sapiens, UniProt P00533, L858R/T790M)
Sequence (P00533 25-1210 T790M/L858R limits assumed): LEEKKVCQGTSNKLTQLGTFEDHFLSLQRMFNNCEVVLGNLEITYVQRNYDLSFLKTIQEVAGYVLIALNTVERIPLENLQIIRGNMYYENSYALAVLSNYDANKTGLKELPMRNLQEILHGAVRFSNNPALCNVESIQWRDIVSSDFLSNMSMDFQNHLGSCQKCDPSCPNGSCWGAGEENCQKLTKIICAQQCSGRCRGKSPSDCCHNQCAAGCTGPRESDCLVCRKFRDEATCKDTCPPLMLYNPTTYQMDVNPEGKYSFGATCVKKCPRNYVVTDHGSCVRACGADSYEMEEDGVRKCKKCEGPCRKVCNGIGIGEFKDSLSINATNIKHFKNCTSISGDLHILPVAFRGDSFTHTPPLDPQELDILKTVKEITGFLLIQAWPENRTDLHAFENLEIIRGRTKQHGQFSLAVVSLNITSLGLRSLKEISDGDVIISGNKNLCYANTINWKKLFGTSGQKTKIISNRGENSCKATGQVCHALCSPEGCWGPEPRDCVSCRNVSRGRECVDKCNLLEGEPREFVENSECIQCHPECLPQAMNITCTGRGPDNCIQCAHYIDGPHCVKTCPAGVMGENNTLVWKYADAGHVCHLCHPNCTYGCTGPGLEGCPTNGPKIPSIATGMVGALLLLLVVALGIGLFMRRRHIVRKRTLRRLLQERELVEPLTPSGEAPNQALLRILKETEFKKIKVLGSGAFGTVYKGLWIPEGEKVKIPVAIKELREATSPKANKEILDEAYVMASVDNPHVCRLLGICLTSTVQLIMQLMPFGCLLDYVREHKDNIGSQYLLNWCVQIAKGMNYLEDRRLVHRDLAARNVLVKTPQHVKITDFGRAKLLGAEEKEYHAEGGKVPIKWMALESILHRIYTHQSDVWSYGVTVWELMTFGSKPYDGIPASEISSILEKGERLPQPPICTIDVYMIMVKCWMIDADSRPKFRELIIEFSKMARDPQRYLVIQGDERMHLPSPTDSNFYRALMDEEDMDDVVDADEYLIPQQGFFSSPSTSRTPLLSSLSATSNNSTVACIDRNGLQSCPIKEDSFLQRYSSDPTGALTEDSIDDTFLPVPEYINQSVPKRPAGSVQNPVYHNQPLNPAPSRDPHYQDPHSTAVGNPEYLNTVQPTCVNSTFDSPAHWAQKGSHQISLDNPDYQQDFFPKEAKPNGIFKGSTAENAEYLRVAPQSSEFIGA
Assay: Inhibition of EGFR Leu858Arg and Thr790Met mutant by HTRF assay
outcome measure: IC50 (nM)

C#Cc1cccc(Nc2ccnc3cc(OC)c(OC)cc23)c1 : 1500

A. CN(C)CCCC(=O)Nc1ccc2nccc(Nc3cccc(Br)c3)c2c1
B. C#Cc1cccc(Nc2ccnc3cc(OCCOC)c(OCCOC)cc23)c1
C. C=CC(=O)Nc1ccc2nccc(Nc3cccc(Br)c3)c2c1
query: Order the records, beginning with the lowest IC50 and ending with the highest. To answer, write out the labels according to the requested order.
result: C, A, B
(C: 3.2 nM, A: 130 nM, B: 1500 nM)
